test system: 1535 (donor line of iPSC-derived cardiomyocytes); test: POD (EC05) for decrease in beat frequency (negative chronotrope) vs vehicle; higher = less potent (higher point of departure); conditions: exposure time: 90 min
POD vs vehicle reference

compound	POD vs vehicle
O=C(O)C=C(C(F)(F)F)C(F)(F)F [3,3-Bis(trifluoromethyl)-2-propenoic_acid]	> 100 µM
O=S(=O)(O)C(F)(F)C(F)(F)C(F)(F)C(F)(F)C(F)(F)C(F)(F)F [Perfluorohexanesulfonic_acid]	43.4 µM
O=S(=O)(O)C(F)(F)C(F)(F)C(F)(F)C(F)(F)C(F)(F)C(F)(F)C(F)(F)C(F)(F)F [Perfluorooctanesulfonic_acid]	> 100 µM
O=C(O)C(F)(F)C(F)(F)C(F)(F)C(F)(F)C(F)(F)F [Perfluorohexanoic_acid]	> 100 µM
O=C(O)CCC(F)(F)C(F)(F)C(F)(F)C(F)(F)C(F)(F)F [2H,2H,3H,3H-Perfluorooctanoic_acid]	75.1 µM
OCC(F)(F)C(F)(F)C(F)(F)CO [Hexafluoroamylene_glycol]	> 100 µM
OCC(O)CC(F)(F)C(F)(F)C(F)(F)C(F)(F)C(F)(F)C(F)(F)C(F)(F)C(F)(F)F (configuration not stated) [1-(Perfluorofluorooctyl)propane-2,3-diol]	> 100 µM
CC(O)C(F)(F)C(F)(F)F (configuration not stated) [1-Pentafluoroethylethanol]	> 100 µM
CN(CCO)S(=O)(=O)C(F)(F)C(F)(F)C(F)(F)C(F)(F)C(F)(F)C(F)(F)C(F)(F)C(F)(F)F [N-Methyl-N-(2-hydroxyethyl)perfluorooctanesulfonamide]	> 100 µM
O=C(O)C(F)(F)OC(F)(F)C(F)(F)OC(F)(F)F [Perfluoro-3,6-dioxaheptanoic_acid]	> 100 µM
NC(=O)C(F)(F)C(F)(F)C(F)(F)C(F)(F)F [Nonafluoropentanamide]	> 100 µM
O=C(O)C(F)(F)C(F)(F)C(F)(F)C(F)(F)C(F)(F)C(F)(F)C(F)(F)C(F)(F)F [Perfluorononanoic_acid]	31.8 µM
O=C(O)CCC(F)(F)C(F)(F)C(F)(F)C(F)(F)C(F)(F)C(F)(F)C(F)(F)F [3-Perfluoroheptylpropanoic_acid]	> 100 µM
COC(=O)C(F)(F)C(F)(F)OC(F)(C(F)(F)F)C(F)(F)OC(F)=C(F)F (configuration not stated) [Methyl_perfluoro(3-(1-ethenyloxypropan-2-yloxy)propanoate)]	> 100 µM
NC(O)(C(F)(F)F)C(F)(F)F [2-Aminohexafluoropropan-2-ol]	83.8 µM
O=C([O-])C(F)(F)C(F)(F)C(F)(F)C(F)(F)C(F)(F)C(F)(F)C(F)(F)F.[NH4+] [Ammonium_perfluorooctanoate]	43.5 µM
O=S(=O)(OCC(F)(F)F)C(F)(F)C(F)(F)C(F)(F)C(F)(F)F [2,2,2-Trifluoroethyl_perfluorobutanesulfonate]	> 100 µM
O=S(=O)(O)C(F)(F)C(F)(F)C(F)(F)C(F)(F)F [Perfluorobutanesulfonic_acid]	> 100 µM
OCC(F)(F)C(F)(F)C(F)(F)F [Heptafluorobutanol]	> 100 µM
OCC(F)(F)C(F)(F)C(F)(F)C(F)(F)C(F)(F)C(F)F [Dodecafluoroheptanol]	18.4 µM
OCCC(F)(F)C(F)(F)C(F)(F)C(F)(F)C(F)(F)C(F)(F)F [6:2 Fluorotelomer alcohol]	> 100 µM
OCCC(F)(F)C(F)(F)C(F)(F)C(F)(F)C(F)(F)C(F)(F)C(F)(F)C(F)(F)F [8:2 Fluorotelomer alcohol]	> 100 µM
